Can you tell me PBM binding z-score for the items I'm about to list?
Test system: PPARg:RXRa DBDmut IVT, anti-RXR (DBD mutation: RXRa K156A/R161A, NR concentration 270 nM, RXRa partner concentration 90 nM)
Test: PBM binding z-score (relative to random genomic background probes); higher = stronger binding; sequences stand for … in GC…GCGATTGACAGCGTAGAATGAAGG
Please give the numeric answer without any surrounding text.

Exercise: Respond only with PBM binding z-score recorded for ACAATGAGGTTAAGATCAGGGAAACAGAATACAT
Key: 1.93

Exercise: Respond only with PBM binding z-score recorded for CCTACTGGGCGAAAGGTCATTGATTCCAATGCTC
Key: 3.27

Exercise: Respond only with PBM binding z-score recorded for ATCTCTAGGTAAGACTCAGGTCAGTGAAGAACGC
Key: 1.9

Exercise: Respond only with PBM binding z-score recorded for TCGAGTAGGTCAGGGGCATTCAGAATGGCGTCGA
Key: 4.91

Exercise: Respond only with PBM binding z-score recorded for ACTAGCAGGCCAATTTTGGGTCACTCAAACAAAG
Key: 1.13

Exercise: Respond only with PBM binding z-score recorded for GATACAGGGTCAAGGCCGGAGTACGCGTATTGAT
Key: 2.69

Exercise: Respond only with PBM binding z-score recorded for ATCTCTAGGTAACAAGTTGAGTGAAAGAGAGGAC
Key: 3.42

Exercise: Respond only with PBM binding z-score recorded for CAAACTAGGGCACCGGAAGGTCAAAGTCCGCATG
Key: 7.77

Exercise: Respond only with PBM binding z-score recorded for GTACCAAGCTGAATAGGTCGTTGATGAGTAGGCG
Key: -0.646

Exercise: Respond only with PBM binding z-score recorded for ATATGTAGGTTACATCCGGGACATTCAGGCTATG
Key: 7.57

Exercise: Respond only with PBM binding z-score recorded for GCTTACGCGTCAAAGGTTATAGCATGAATAGAAT
Key: -0.0505

Exercise: Respond only with PBM binding z-score recorded for GCTTATGGGTCAAAGGTTATAGCATGAATAGAAT
Key: 7.1

Exercise: Respond only with PBM binding z-score recorded for CATACAGGGTCAGCGAGGCCAGAGTAGGGACGGC
Key: 0.932

Exercise: Respond only with PBM binding z-score recorded for TAGCCTAGGTCATTGGGCCAATATAGTACGCATC
Key: 3.03

Exercise: Respond only with PBM binding z-score recorded for TCTTATAGGTAAAAGGTGAAAGTCGGTGTGGTAA
Key: 5.43

Exercise: Respond only with PBM binding z-score recorded for GTACCTAGGTGAATAGGTCGTTGATGAGTAGGCG
Key: 2.96

Exercise: Respond only with PBM binding z-score recorded for CCTCCTGGGCCACGAAAGGTCATTGATTCAGTGA
Key: 0.578

Exercise: Respond only with PBM binding z-score recorded for CCTCGGAGGACGGAAGGTCAGAGCTGTCCGCTTT
Key: -0.591

Exercise: Respond only with PBM binding z-score recorded for AGAACGAGGGCACTCTGAGTTGATAGCAGAGTAG
Key: 3.52

Exercise: Respond only with PBM binding z-score recorded for CGTCCAAGGTCAGAGAGGTCAGTTAATGCCGAGT
Key: 3.01

Exercise: Respond only with PBM binding z-score recorded for GTACCAAGGTGAATAGGACGTTGATGAGTAGGCG
Key: 1.26

Exercise: Respond only with PBM binding z-score recorded for TAGCCTAGGTCAGTTCGGGCCAGTATACGCTATA
Key: 0.449

Exercise: Respond only with PBM binding z-score recorded for TCTTGTAGATCAAGCAGGTTAAGCAAGCCTGAGT
Key: 1.65

Exercise: Respond only with PBM binding z-score recorded for TAGCCTAGGTCATGCGGGCCAGTACAGTGTCGGC
Key: 1.55

Exercise: Respond only with PBM binding z-score recorded for CCTAGTTGGTCGAGGTCACACACGCTATAGGTAC
Key: 1.44

Exercise: Respond only with PBM binding z-score recorded for TATACAGGGTCAAAGGCCAGAGCACGAATGTCGA
Key: 2.75

Exercise: Respond only with PBM binding z-score recorded for TCCAGTTGGTCAAAGGTCACACACTCGAAATGCG
Key: 3.32

Exercise: Respond only with PBM binding z-score recorded for CCTGCTAGGTCATTGGTCAGCTAAAGCAGCTCGC
Key: 3.86

Exercise: Respond only with PBM binding z-score recorded for GTTTACGGGTCAAAGGTTATAGCATGAATAGAAT
Key: 4.49

Exercise: Respond only with PBM binding z-score recorded for CGTCCAAGGTCTGCAGGTCAGTGAAAGCGACGTG
Key: 0.404

Exercise: Respond only with PBM binding z-score recorded for CATACTGGGCCAAGGTCATTGATCAGTCAAAGCA
Key: 3.65

Exercise: Respond only with PBM binding z-score recorded for CGAACTAGGTCATCCAGGACAGTCAATACATTGA
Key: 8.57

Exercise: Respond only with PBM binding z-score recorded for TCTAGCAGGCTAGAGGGTCACTCAAGAGGTACGG
Key: 0.497

Exercise: Respond only with PBM binding z-score recorded for AATACAGGGTCGTCGTAGGCCAGAGTACGCACAG
Key: -0.0628

Exercise: Respond only with PBM binding z-score recorded for CATACAGGGTCAGCTAGCCCAGAGTAGGGACGGC
Key: 0.792

Exercise: Respond only with PBM binding z-score recorded for GGAACGAGGGCAAAGTTGATAGAATCTGTCGACG
Key: 4.01

Exercise: Respond only with PBM binding z-score recorded for ACTATTAGTTGAGACGAGGCCAACCGATAGGTTG
Key: -0.553

Exercise: Respond only with PBM binding z-score recorded for ACTAGCATGCCAAGGGTCACTCAAGATTAGTCCG
Key: 0.455

Exercise: Respond only with PBM binding z-score recorded for TCTCCGAGGACACGAAGGTCAGAGCTTTCCAGAG
Key: 1.19

Exercise: Respond only with PBM binding z-score recorded for CGTCCAAGGTCAAAGGTTAGTGAAGAGATGACGG
Key: 3.36

Exercise: Respond only with PBM binding z-score recorded for GCAGACAGGTGAAACGTAGGTAACTCAGGGTGGC
Key: 1.69
